experimentNotes: Binding affinity to polyA-polyU (unknown origin) assessed as hypochromic effect by UV-vis spectrophotometric method
Calls of active or inactive are those of the source. The calls are words filed in the database; no cut-off is given here.
observable: Activity

Consider the reported Activity for these compounds:
- smilesRepr: "N#Cc1ccc(OCCNc2ccnc3cc(Cl)ccc23)cc1"
  Activity: "inactive"
- smilesRepr: "CC(C)NC(=N)c1ccc2nc(-c3ccc(Oc4ccnc5cc(Cl)ccc45)cc3)[nH]c2c1.Cl.Cl.Cl"
  Activity: "26.8%"
- smilesRepr: "Cl.Cl.N=C(NC1CCCC1)c1ccc2nc(-c3ccc(Oc4ccnc5cc(Cl)ccc45)cc3)[nH]c2c1"
  Activity: "22.8%"
- smilesRepr: "Cl.Cl.Cl.N=C(N)c1ccc2nc(-c3ccc(Oc4ccnc5cc(Cl)ccc45)cc3)[nH]c2c1"
  Activity: "6.9%"
- smilesRepr: "Cl.Cl.Cl.N=C(NC1CCCC1)c1ccc2nc(-c3ccc(OCCNc4ccnc5cc(Cl)ccc45)cc3)[nH]c2c1"
  Activity: "49.7%"

Lab book: Activity of "Cl.Cl.Cl.Clc1ccc2c(NCCOc3ccc(-c4nc5ccc(C6=NCCCN6)cc5[nH]4)cc3)ccnc2c1" noted as inactive

Lab book: Activity of "Cl.Cl.Clc1ccc2c(Oc3ccc(-c4nc5ccc(C6=NCCCN6)cc5[nH]4)cc3)ccnc2c1" noted as 15.5%

Lab book: Activity of "Cl.Cl.Cl.N=C(N)c1ccc2nc(-c3ccc(OCCNc4ccnc5cc(Cl)ccc45)cc3)[nH]c2c1" noted as inactive

Lab book: Activity of "CC(C)CNC(=N)c1ccc2nc(-c3ccc(OCCNc4ccnc5cc(Cl)ccc45)cc3)[nH]c2c1.Cl.Cl.Cl" noted as 26%

Lab book: Activity of "Cl.Cl.Clc1ccc2c(Oc3ccc(-c4nc5ccc(C6=NCCN6)cc5[nH]4)cc3)ccnc2c1" noted as 69.7%

Lab book: Activity of "CC(C)NC(=N)c1ccc2nc(-c3ccc(OCCNc4ccnc5cc(Cl)ccc45)cc3)[nH]c2c1.Cl.Cl.Cl" noted as inactive

Lab book: Activity of "Cl.Cl.Cl.Clc1ccc2c(NCCOc3ccc(-c4nc5ccc(C6=NCCN6)cc5[nH]4)cc3)ccnc2c1" noted as 37.7%

Lab book: Activity of "CC(C)CNC(=N)c1ccc2nc(-c3ccc(Oc4ccnc5cc(Cl)ccc45)cc3)[nH]c2c1.Cl.Cl.Cl" noted as 17.9%

----------
experimentNotes: Growth inhibition of MDCK1 cells after 72 hrs by MTT assay
Parameters: species or system Canis lupus familiaris
appliedConditions: dog
observable: GI50 at 72 h

Consider the reported GI50 at 72 h for these compounds:
- smilesRepr: "Cl.Cl.Clc1ccc2c(Oc3ccc(-c4nc5ccc(C6=NCCN6)cc5[nH]4)cc3)ccnc2c1"
  GI50 at 72 h: "77.1 µM"
- smilesRepr: "CC(C)CNC(=N)c1ccc(Oc2ccnc3cc(Cl)ccc23)cc1.Cl.Cl.Cl"
  GI50 at 72 h: "30.3 µM"

Lab book: GI50 at 72 h of "CC(C)NC(=N)c1ccc2nc(-c3ccc(OCCNc4ccnc5cc(Cl)ccc45)cc3)[nH]c2c1.Cl.Cl.Cl" noted as > 100 µM

Lab book: GI50 at 72 h of "CC(C)CNC(=N)c1ccc2nc(-c3ccc(Oc4ccnc5cc(Cl)ccc45)cc3)[nH]c2c1.Cl.Cl.Cl" noted as 53.5 µM

Lab book: GI50 at 72 h of "CC(C)NC(=N)c1ccc(Oc2ccnc3cc(Cl)ccc23)cc1.Cl.Cl.Cl" noted as 57.7 µM

Lab book: GI50 at 72 h of "Cl.Cl.Cl.N=C(N)c1ccc(OCCNc2ccnc3cc(Cl)ccc23)cc1" noted as 74.4 µM

Lab book: GI50 at 72 h of "N#Cc1ccc2nc(-c3ccc(Oc4ccnc5cc(Cl)ccc45)cc3)[nH]c2c1" noted as 93.1 µM

Lab book: GI50 at 72 h of "Cl.Cl.Clc1ccc2c(Oc3ccc(-c4nc5ccc(C6=NCCCN6)cc5[nH]4)cc3)ccnc2c1" noted as 67.1 µM

Lab book: GI50 at 72 h of "CC(C)NC(=N)c1ccc2nc(-c3ccc(Oc4ccnc5cc(Cl)ccc45)cc3)[nH]c2c1.Cl.Cl.Cl" noted as 61.8 µM

----------
experimentNotes: Binding affinity to polyA-polyU (unknown origin) assessed as change in melting temperature at 0.3 compound to ds-polynucleotide ratio by spectrophotometric method
Below is a list of entries, each paired with its recorded ΔTm value.
# include the unit after the value

- smilesRepr: "Cl.Cl.N=C(NC1CCCC1)c1ccc2nc(-c3ccc(Oc4ccnc5cc(Cl)ccc45)cc3)[nH]c2c1"
  ΔTm: "4.06 °C"
- smilesRepr: "CC(C)NC(=N)c1ccc(Oc2ccnc3cc(Cl)ccc23)cc1.Cl.Cl.Cl"
  ΔTm: "-0.36 °C"
- smilesRepr: "CC(C)NC(=N)c1ccc2nc(-c3ccc(Oc4ccnc5cc(Cl)ccc45)cc3)[nH]c2c1.Cl.Cl.Cl"
  ΔTm: "1.32 °C"
- smilesRepr: "Cl.Cl.Clc1ccc2c(Oc3ccc(-c4nc5ccc(C6=NCCCN6)cc5[nH]4)cc3)ccnc2c1"
  ΔTm: "1.98 °C"
- smilesRepr: "Cl.Cl.Cl.N=C(N)c1ccc2nc(-c3ccc(Oc4ccnc5cc(Cl)ccc45)cc3)[nH]c2c1"
  ΔTm: "0.72 °C"

Lab book: ΔTm of "CC(C)CNC(=N)c1ccc2nc(-c3ccc(Oc4ccnc5cc(Cl)ccc45)cc3)[nH]c2c1.Cl.Cl.Cl" noted as 0.78 °C

Lab book: ΔTm of "CC(C)CNC(=N)c1ccc2nc(-c3ccc(OCCNc4ccnc5cc(Cl)ccc45)cc3)[nH]c2c1.Cl.Cl.Cl" noted as 0.75 °C

Lab book: ΔTm of "Cl.Cl.Cl.Clc1ccc2c(NCCOc3ccc(-c4nc5ccc(C6=NCCN6)cc5[nH]4)cc3)ccnc2c1" noted as 5.16 °C

Lab book: ΔTm of "Cl.Cl.Clc1ccc2c(Oc3ccc(-c4nc5ccc(C6=NCCN6)cc5[nH]4)cc3)ccnc2c1" noted as 0.78 °C

Lab book: ΔTm of "Cl.Cl.Clc1ccc2c(Oc3ccc(C4=NCCN4)cc3)ccnc2c1" noted as 2.18 °C

Lab book: ΔTm of "Cl.Cl.Clc1ccc2c(Oc3ccc(C4=NCCCN4)cc3)ccnc2c1" noted as 1.22 °C

Lab book: ΔTm of "Cl.Cl.Cl.N=C(NC1CCCC1)c1ccc(Oc2ccnc3cc(Cl)ccc23)cc1" noted as 0.65 °C

Lab book: ΔTm of "Cl.Cl.N=C(N)c1ccc(Oc2ccnc3cc(Cl)ccc23)cc1" noted as -0.16 °C

Lab book: ΔTm of "Cl.Cl.Cl.N=C(NC1CCCC1)c1ccc2nc(-c3ccc(OCCNc4ccnc5cc(Cl)ccc45)cc3)[nH]c2c1" noted as 1.14 °C

Lab book: ΔTm of "CC(C)CNC(=N)c1ccc(Oc2ccnc3cc(Cl)ccc23)cc1.Cl.Cl.Cl" noted as -0.8 °C

----------
Tested on: Calf thymus DNA
experimentNotes: Binding affinity to calf thymus DNA assessed as change in melting temperature at 0.1 compound to ds-polynucleotide ratio by spectrophotometric method
Format: nucleic-acid assay
appliedConditions: Bos taurus
observable: ΔTm (°C)
Please respond with the number in °C and leave the unit unwritten.

Consider the reported ΔTm for these compounds:
- smilesRepr: "CC(C)NC(=N)c1ccc(Oc2ccnc3cc(Cl)ccc23)cc1.Cl.Cl.Cl"
  unitAnnotation: "°C"
  testValue: 2.01
- smilesRepr: "Cl.Cl.Cl.N=C(NC1CCCC1)c1ccc(Oc2ccnc3cc(Cl)ccc23)cc1"
  unitAnnotation: "°C"
  testValue: 1.35
- smilesRepr: "Cl.Cl.Cl.Clc1ccc2c(NCCOc3ccc(-c4nc5ccc(C6=NCCCN6)cc5[nH]4)cc3)ccnc2c1"
  unitAnnotation: "°C"
  testValue: 6.33
- smilesRepr: "CC(C)NC(=N)c1ccc2nc(-c3ccc(OCCNc4ccnc5cc(Cl)ccc45)cc3)[nH]c2c1.Cl.Cl.Cl"
  unitAnnotation: "°C"
  testValue: 5.83
- smilesRepr: "CC(C)NC(=N)c1ccc2nc(-c3ccc(Oc4ccnc5cc(Cl)ccc45)cc3)[nH]c2c1.Cl.Cl.Cl"
  unitAnnotation: "°C"
  testValue: 1.07

Lab book: ΔTm of "Cl.Cl.Clc1ccc2c(Oc3ccc(C4=NCCN4)cc3)ccnc2c1" noted as 2.65

Lab book: ΔTm of "Cl.Cl.Clc1ccc2c(Oc3ccc(-c4nc5ccc(C6=NCCN6)cc5[nH]4)cc3)ccnc2c1" noted as 1.6

Lab book: ΔTm of "Cl.Cl.Cl.Clc1ccc2c(NCCOc3ccc(-c4nc5ccc(C6=NCCN6)cc5[nH]4)cc3)ccnc2c1" noted as 5.75

Lab book: ΔTm of "Cl.Cl.N=C(N)c1ccc(Oc2ccnc3cc(Cl)ccc23)cc1" noted as 1.76

Lab book: ΔTm of "Cl.Cl.Cl.N=C(NC1CCCC1)c1ccc2nc(-c3ccc(OCCNc4ccnc5cc(Cl)ccc45)cc3)[nH]c2c1" noted as 3.71
